Below, each entry is listed alongside its reported pIC50.
experimental_system: topoisomerase II isolated from Giardia lamblia
assay_procedure: Topoisomerase II inhibition (Giardia lamblia enzyme)
assay_context: 50% inhibition of topoisomerase II isolated from Giardia lamblia; read-out: IC50 Topoisomerase Activity II G.l.
The value called pIC50 is obtained by taking minus log10 of the concentration in mol/L.

[
  {
    "compound": "Cc1c(-c2ccc(C(=N)N)cc2)oc(-c2ccc(C(=N)N)cc2)c1C [Compound 8]",
    "experimental_system": "topoisomerase II isolated from Giardia lamblia",
    "pIC50": 6.12
  }
]

# next compound below
Data request: Specify measured pIC50 for CN(C)CCCNC(=N)c1ccc(-c2ccc(-c3ccc(C(=N)NCCCN(C)C)cc3)o2)cc1 [Compound 14] .
Data returned: 6.60

###

Tested on: poly A poly T
assay_procedure: DNA thermal melting (increase in Tm of poly A poly T)
Format: binding
assay_context: MES buffer pH 6.0, 0.1 M NaCl, ratio of 0.3 moles of compound to nucleic acid bases
measured_parameter: ΔTm DNA (°C)
Provide the reading as a plain figure in °C.

Here are 2 compounds together with their reported answers.
[
  {
    "mol_smiles": "OCCN1CCN=C1c1ccc(-c2ccc(-c3ccc(C4=NCCN4CCO)cc3)o2)cc1",
    "value_reported": 12.2
  },
  {
    "mol_smiles": "Cc1ccc(Oc2cc(-c3ccc(C4=NCCN4)cc3)oc2-c2ccc(C3=NCCN3)cc2)cc1",
    "value_reported": 18.1
  }
]

Proceeding to the next compound to report its ΔTm DNA.
Data request: Print poly A poly T ΔTm DNA for N=C(NCCO)c1ccc(-c2ccc(-c3ccc(C(=N)NCCO)cc3)o2)cc1 .
Data returned: 21.1

###

experimental_system: topoisomerase II isolated from Giardia lamblia
assay_procedure: Topoisomerase II inhibition (Giardia lamblia enzyme)
assay_context: 50% inhibition of topoisomerase II isolated from Giardia lamblia; read-out: IC50 Topoisomerase Activity II G.l.
measured_parameter: pIC50
Notebook: values listed as pIC50 are -log10 of the concentration (mol/L).

Guide cases for pIC50, answers given:
[
  {
    "mol_smiles": "OCCN1CCN=C1c1ccc(-c2ccc(-c3ccc(C4=NCCN4CCO)cc3)o2)cc1",
    "pIC50": 4.70
  },
  {
    "mol_smiles": "N=C(NCCCN)c1ccc(-c2ccc(-c3ccc(C(=N)NCCCN)cc3)o2)cc1",
    "pIC50": 6.20
  },
  {
    "mol_smiles": "CCN1CCN=C1c1ccc(-c2ccc(-c3ccc(C4=NCCN4CC)cc3)o2)cc1",
    "pIC50": 4.60
  }
]

Could you now consider this next compound?
Data request: Consider the compound N=C(NC1CC1)c1ccc(-c2ccc(-c3ccc(C(=N)NC4CC4)cc3)o2)cc1 and give its recorded pIC50.
Data returned: 5.90

###

Tested on: poly A poly T
assay_procedure: DNA thermal melting (increase in Tm of poly A poly T)
Type: binding
assay_context: MES buffer pH 6.0, 0.1 M NaCl, ratio of 0.3 moles of compound to nucleic acid bases
measured_parameter: ΔTm DNA

[
  {
    "compound": "N=C(N)c1ccc(-c2ccc(-c3ccc(C(=N)N)cc3)o2)cc1",
    "ΔTm DNA": "25 °C"
  },
  {
    "compound": "CCN1CCN=C1c1ccc(-c2ccc(-c3ccc(C4=NCCN4CC)cc3)o2)cc1",
    "ΔTm DNA": "11.8 °C"
  },
  {
    "compound": "c1cc(-c2ccc(-c3ccc(C4=NCCCCN4)cc3)o2)ccc1C1=NCCCCN1",
    "ΔTm DNA": "> 28 °C"
  }
]

Data request: Recall and state the measured ΔTm DNA for CN(C)CCCNC(=N)c1ccc(-c2ccc(-c3ccc(C(=N)NCCCN(C)C)cc3)o2)cc1 .
Data returned: > 28 °C

Data request: Item N=C(NC1CC1)c1ccc(-c2ccc(-c3ccc(C(=N)NC4CC4)cc3)o2)cc1 : provide ΔTm DNA
Data returned: > 28 °C

Data request: State its ΔTm DNA for this compound: c1cc(-c2ccc(-c3ccc(C4=NC5CCCCC5N4)cc3)o2)ccc1C1=NC2CCCCC2N1 (centres unmarked)
Data returned: 24.5 °C

Data request: Could you please provide reported ΔTm DNA for Cc1ccc(Oc2cc(-c3ccc(C4=NCCCN4)cc3)oc2-c2ccc(C3=NCCCN3)cc2)cc1 ? Thanks!
Data returned: > 28 °C

Data request: Look up ΔTm DNA of CC(C)NC(=N)c1ccc(-c2ccc(-c3ccc(C(=N)NC(C)C)cc3)o2)cc1 and report it.
Data returned: 23.1 °C

###

experimental_system: topoisomerase I isolated from Pneumocystis carinii
assay_procedure: Topoisomerase I inhibition (Pneumocystis carinii enzyme)
assay_context: 50% inhibition of topoisomerase I isolated from Pneumocystis carinii
measured_parameter: pIC50
# pIC50 is unitless: minus log10 of the molar concentration; print number only

[
  {
    "mol_smiles": "Cc1ccc(Oc2cc(-c3ccc(C4=NCCN4)cc3)oc2-c2ccc(C3=NCCN3)cc2)cc1",
    "pIC50": 4.90
  }
]

Next:
Data request: Name the recorded pIC50 of the compound listed here: N=C(N)c1ccc(-c2ccc(-c3ccc(C(=N)N)cc3)o2)cc1
Data returned: 4.00

###

experimental_system: topoisomerase II isolated from Drosophila melanogaster (Drosophila melanogaster)
Construct: topoisomerase II isolated from Drosophila melanogaster; from tissue
assay_procedure: Topoisomerase II inhibition (Drosophila melanogaster enzyme)
Assay type: biochemical
assay_context: 50% inhibition of topoisomerase II isolated from Drosophila melanogaster; read-out: IC50 Topoisomerase Activity II D.m.
measured_parameter: IC50

Data request: Read the entry CN(C)NC(=O)c1ccc(-c2ccc(-c3ccc(C(=O)NN(C)C)cc3)o2)cc1 and write its reported IC50.
Data returned: 30 to 60 µM

###

experimental_system: topoisomerase II isolated from Drosophila melanogaster (Drosophila melanogaster, UniProt P15348)
Construct: topoisomerase II isolated from Drosophila melanogaster; from tissue
Sequence (P15348 whole entry): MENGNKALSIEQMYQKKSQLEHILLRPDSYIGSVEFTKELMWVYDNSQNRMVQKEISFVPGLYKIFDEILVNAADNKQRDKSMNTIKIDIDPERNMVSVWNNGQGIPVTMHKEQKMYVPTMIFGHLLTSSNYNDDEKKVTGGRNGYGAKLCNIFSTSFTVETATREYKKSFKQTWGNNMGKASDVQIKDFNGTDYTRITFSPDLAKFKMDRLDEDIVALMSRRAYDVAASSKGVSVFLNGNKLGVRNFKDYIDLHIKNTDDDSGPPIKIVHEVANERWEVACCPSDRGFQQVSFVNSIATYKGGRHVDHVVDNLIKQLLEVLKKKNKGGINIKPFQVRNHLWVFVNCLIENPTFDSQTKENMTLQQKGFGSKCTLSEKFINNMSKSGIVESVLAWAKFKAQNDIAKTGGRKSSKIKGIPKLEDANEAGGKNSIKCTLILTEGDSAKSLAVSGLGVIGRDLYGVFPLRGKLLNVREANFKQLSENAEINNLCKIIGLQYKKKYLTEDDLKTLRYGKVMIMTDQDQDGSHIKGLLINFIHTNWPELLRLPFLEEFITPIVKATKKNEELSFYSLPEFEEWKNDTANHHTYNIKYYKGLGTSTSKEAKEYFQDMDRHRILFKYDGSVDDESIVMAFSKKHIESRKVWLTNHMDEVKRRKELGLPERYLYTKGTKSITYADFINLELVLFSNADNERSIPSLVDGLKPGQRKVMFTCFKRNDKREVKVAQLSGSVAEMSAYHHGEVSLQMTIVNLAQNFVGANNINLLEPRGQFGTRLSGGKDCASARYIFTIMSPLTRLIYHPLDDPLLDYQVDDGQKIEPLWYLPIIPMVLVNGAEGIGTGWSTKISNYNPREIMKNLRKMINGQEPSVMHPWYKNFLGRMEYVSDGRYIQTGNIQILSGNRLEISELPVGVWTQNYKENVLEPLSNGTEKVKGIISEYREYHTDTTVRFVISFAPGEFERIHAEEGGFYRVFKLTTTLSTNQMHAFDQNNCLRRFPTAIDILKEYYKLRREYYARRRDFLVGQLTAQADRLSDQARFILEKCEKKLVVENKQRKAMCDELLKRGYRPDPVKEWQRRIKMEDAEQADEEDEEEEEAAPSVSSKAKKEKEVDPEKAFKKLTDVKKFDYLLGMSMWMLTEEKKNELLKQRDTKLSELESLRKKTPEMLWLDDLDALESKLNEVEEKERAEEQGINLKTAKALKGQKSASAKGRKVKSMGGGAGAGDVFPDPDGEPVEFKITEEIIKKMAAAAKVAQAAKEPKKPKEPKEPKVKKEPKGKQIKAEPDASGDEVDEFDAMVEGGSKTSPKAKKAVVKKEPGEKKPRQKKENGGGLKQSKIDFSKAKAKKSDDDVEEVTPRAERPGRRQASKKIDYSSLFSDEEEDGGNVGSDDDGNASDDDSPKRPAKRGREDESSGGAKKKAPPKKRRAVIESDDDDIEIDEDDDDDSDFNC
assay_procedure: Topoisomerase II inhibition (Drosophila melanogaster enzyme)
Assay type: biochemical
measured_parameter: pIC50
Note: pIC50 values are expressed as the negative base-10 logarithm of concentration in M.

[
  {
    "mol_smiles": "OCCN1CCN=C1c1ccc(-c2ccc(-c3ccc(C4=NCCN4CCO)cc3)o2)cc1",
    "pIC50": 3.70
  }
]

Data request: Return reported pIC50. Input compound: c1cc(-c2ccc(-c3ccc(C4=NCCCN4)cc3)o2)ccc1C1=NCCCN1
Data returned: 5.60

###

IC50 for assorted compounds
experimental_system: topoisomerase II isolated from Giardia lamblia
assay_procedure: Topoisomerase II inhibition (Giardia lamblia enzyme)
Assay type: biochemical
assay_context: 50% inhibition of topoisomerase II isolated from Giardia lamblia; read-out: IC50 Topoisomerase Activity II G.l.
Give your result in µM as a bare value.

Consider the reported IC50 for these compounds:
[
  {
    "compound": "c1cc(-c2ccc(-c3ccc(C4=NCCCCN4)cc3)o2)ccc1C1=NCCCCN1 [Compound 4]",
    "units": "µM",
    "IC50": 1.5
  },
  {
    "compound": "CN(C)CCNC(=N)c1ccc(-c2ccc(-c3ccc(C(=N)NCCN(C)C)cc3)o2)cc1 [Compound 17]",
    "units": "µM",
    "IC50": 0.8
  }
]

Data request: Please indicate IC50 recorded for NCCNC(=O)c1ccc2[nH]c(-c3ccc(-c4ccc(-c5ccc(-c6nc7cc(C(=O)NCCN)ccc7[nH]6)cc5)o4)cc3)nc2c1 [Compound 11]
Data returned: 5

###

experimental_system: topoisomerase II isolated from Drosophila melanogaster (Drosophila melanogaster, UniProt P15348)
Construct: topoisomerase II isolated from Drosophila melanogaster; from tissue
assay_procedure: Topoisomerase II inhibition (Drosophila melanogaster enzyme)
Assay type: biochemical
Listed here: items and their measured IC50.
Response body: numeric value in µM, unit text excluded.

// solved cases for IC50 follow
[
  {
    "molecule": "CN(C)CCNC(=N)c1ccc(-c2ccc(-c3ccc(C(=N)NCCN(C)C)cc3)o2)cc1 [Compound 17]",
    "IC50 [µM]": 12.5
  },
  {
    "molecule": "c1cc(-c2ccc(-c3ccc(C4=NCCN4)cc3)o2)ccc1C1=NCCN1 [Compound 2, 2,5-bis[4-(2-imidazolinyl)phenyl]furan]",
    "IC50 [µM]": 8
  }
]

Data request: Give IC50 for the following molecule: Cc1cc(-c2ccc(C(=N)NC(C)C)cc2)oc1-c1ccc(C(=N)NC(C)C)cc1 [Compound 20]
Data returned: 3

Data request: Recall and state the measured IC50 for N=C(NCCCN)c1ccc(-c2ccc(-c3ccc(C(=N)NCCCN)cc3)o2)cc1 [Compound 19] .
Data returned: 25

Data request: Give the reported value of IC50 for this record: c1cc(-c2ccc(-c3ccc(C4=NC5CCCCC5N4)cc3)o2)ccc1C1=NC2CCCCC2N1 (centres unmarked) [Compound 5]
Data returned: 50

###

The following molecules are shown together with reported pIC50 values.
experimental_system: topoisomerase II isolated from Drosophila melanogaster (Drosophila melanogaster, UniProt P15348)
Construct: topoisomerase II isolated from Drosophila melanogaster; from tissue
assay_procedure: Topoisomerase II inhibition (Drosophila melanogaster enzyme)
Format: biochemical
# pIC50 = -log10(concentration in molar units)

[
  {
    "mol_smiles": "Cc1ccc(Oc2cc(-c3ccc(C4=NCCN4)cc3)oc2-c2ccc(C3=NCCN3)cc2)cc1",
    "value_reported": 4.60
  },
  {
    "mol_smiles": "Cc1c(-c2ccc(C(=N)N)cc2)oc(-c2ccc(C(=N)N)cc2)c1C",
    "value_reported": 5.62
  }
]

Data request: Tell me measured pIC50 for N=C(N)c1ccc(-c2ccc(-c3ccc(C(=N)N)cc3)o2)cc1 please.
Data returned: 5.70
